System: 5HT1D receptors
Assay: Binding to 5HT1D receptors (125I-GTI displacement, calf caudate nucleus membranes)
Details: ratio of binding IC50 values, 3H-8-OH-DPAT over 125I-GTI
property measured: 5HT1A/5HT1D
Could you respond with only the numeric value?

Name the recorded 5HT1A/5HT1D of the compound listed here: CN(C)CCc1c[nH]c2ccc(CS(=O)(=O)N3CCCCC3)cc12.Cl 49.3

Name the recorded 5HT1A/5HT1D of the compound listed here: CN(C)CCc1c[nH]c2ccc(CS(=O)(=O)N3CCCC3)cc12.Cl 77.1

Name the recorded 5HT1A/5HT1D of the compound listed here: CCOC(=O)N1CCN(S(=O)(=O)Cc2ccc3[nH]cc(CCN(C)C)c3c2)CC1 265.6

Name the recorded 5HT1A/5HT1D of the compound listed here: CNS(=O)(=O)Cc1ccc2[nH]cc(CCN(C)C)c2c1 [Sumatriptan, reference compound] 44.2

---

Biological target: 5HT1A receptors (Rattus norvegicus)
Sequence (P19327 1-422): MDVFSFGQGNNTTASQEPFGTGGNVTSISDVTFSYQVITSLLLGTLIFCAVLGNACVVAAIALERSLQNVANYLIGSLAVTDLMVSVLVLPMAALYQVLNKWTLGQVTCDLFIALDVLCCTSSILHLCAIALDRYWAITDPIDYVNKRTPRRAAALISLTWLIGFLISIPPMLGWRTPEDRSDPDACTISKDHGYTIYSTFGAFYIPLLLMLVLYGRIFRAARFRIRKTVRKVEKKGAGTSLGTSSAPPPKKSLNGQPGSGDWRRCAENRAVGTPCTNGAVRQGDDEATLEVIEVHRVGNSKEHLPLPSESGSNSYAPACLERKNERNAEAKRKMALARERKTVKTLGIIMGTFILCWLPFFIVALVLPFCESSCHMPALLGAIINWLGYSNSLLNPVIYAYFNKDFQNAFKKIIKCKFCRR
Experiment: Binding to 5HT1A receptors (3H-8-OH-DPAT displacement, rat hippocampus membranes)
Field: pIC50. Provide a value for each of the compounds that follow.
pIC50 here: minus log base 10 of the concentration, concentration in moles per litre.

State recorded pIC50 with 5HT1A receptors (Rattus norvegicus), entry CN(C)CCc1c[nH]c2ccc(CS(=O)(=O)N3CCCCC3)cc12.Cl [Compound 2, hydrochloride] , no comment. 6.47

State recorded pIC50 with 5HT1A receptors (Rattus norvegicus), entry CNS(=O)(=O)Cc1ccc2[nH]cc(CCN(C)C)c2c1 [Sumatriptan, reference compound] , no comment. 6.34

---

Field: pIC50. Provide a value for each of the molecules that follow.
Molecular target: 5HT1D receptors (Bos taurus)
Construct: calf caudate nucleus membrane protein; from tissue; host or cells: calf caudate nucleus membranes
Sequence (F1MGM3 1-403): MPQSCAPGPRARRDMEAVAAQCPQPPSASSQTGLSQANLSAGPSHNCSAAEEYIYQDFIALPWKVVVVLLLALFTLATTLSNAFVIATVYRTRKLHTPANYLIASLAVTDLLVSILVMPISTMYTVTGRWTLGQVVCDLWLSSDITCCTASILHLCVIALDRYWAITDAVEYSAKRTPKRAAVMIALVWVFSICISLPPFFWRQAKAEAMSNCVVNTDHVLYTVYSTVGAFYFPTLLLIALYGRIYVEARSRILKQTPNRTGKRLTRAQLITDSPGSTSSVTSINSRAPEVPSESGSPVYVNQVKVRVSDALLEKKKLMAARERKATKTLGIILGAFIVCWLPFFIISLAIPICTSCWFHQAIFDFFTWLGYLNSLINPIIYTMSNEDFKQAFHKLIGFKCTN
Assay: Binding to 5HT1D receptors (125I-GTI displacement, calf caudate nucleus membranes)
pIC50 here: minus log base 10 of the concentration, concentration in moles per litre.

Name the recorded pIC50 of the molecule listed here: CN(C)CCc1c[nH]c2ccc(CS(=O)(=O)N3CCCCC3)cc12.Cl [Compound 2, hydrochloride] 8.16

Name the recorded pIC50 of the molecule listed here: CCOC(=O)N1CCN(S(=O)(=O)Cc2ccc3[nH]cc(CCN(C)C)c3c2)CC1 8.49
